test system: normal human melanocytes; test: Cytotoxicity on normal human melanocytes, PNPP determination; assay type: cell-based; conditions: 10^−5 M, 24 hours
TEST READOUT: Percentages viability on normal human melanocytes
Just so you know, I need the unit written after the number.

Examples from the recorded data:
* COc1cc(OC)c2c(c1)OCC2=O | 85.33%
* COc1cc(O)c2c(c1)O/C(=C\c1ccc(SC)cc1)C2=O | 116.24%
* COc1cc(OC)c2c(c1)O/C(=C\c1ccc(O)cc1)C2=O | 90.87%
* COc1cc(O)c2c(c1)O/C(=C\c1ccc(C#N)cc1)C2=O | 119.36%
* COc1cc(O)c2c(c1)O/C(=C\c1ccccc1)C2=O | 121.56%
* O=C1/C(=C/c2ccc(O)cc2)Oc2cc(O)cc(O)c21 | 128.39%
* CCc1ccc(/C=C2\Oc3cc(O)cc(O)c3C2=O)cc1 | 143.15%
* COc1cc(OC)c2c(c1)O/C(=C\c1ccc(C#N)cc1)C2=O | 96.51%

Give Percentages viability on normal human melanocytes for each of the items listed below.
1. COc1cc(OC)c2c(c1)O/C(=C\c1ccccc1)C2=O
2. COc1cc(OC)c2c(c1)O/C(=C\c1ccc(SC)cc1)C2=O
3. CCc1ccc(/C=C2\Oc3cc(OC)cc(OC)c3C2=O)cc1

Result:
1: 98.55%; 2: 136.13%; 3: 99.62%

* * *

experiment: in vivo; details: both sexes, rat, po
TEST READOUT: LD50

Task: Field request: LD50 | item: `COc1ccc(/C=C2\Oc3cc(O)cc(O)c3C2=O)cc1`
Result: > 5000 mg/kg

* * *

tested on: normal human melanocytes; test: Cytotoxicity on normal human melanocytes, PNPP determination; format: cell-based; settings: 10^−4 M, 24 hours
Strictly below 90% in Percentages viability on normal human melanocytes: YES. Otherwise: NO.

* COc1cc(OC)c2c(c1)O/C(=C\c1ccc(O)cc1)C2=O | NO
* CCc1ccc(/C=C2\Oc3cc(O)cc(O)c3C2=O)cc1 | YES
* COc1cc(OC)c2c(c1)O/C(=C\c1ccc(SC)cc1)C2=O | YES
* COc1cc(OC)c2c(c1)O/C(=C\c1ccccc1)C2=O | YES
* COc1cc(O)c2c(c1)O/C(=C\c1ccc(C#N)cc1)C2=O | YES

Task: # strict comparison: is reported Percentages viability on normal human melanocytes < 90%? input = `COc1cc(OC)c2c(c1)O/C(=C\c1ccc(C#N)cc1)C2=O`
Result: NO

Task: # strict comparison: is reported Percentages viability on normal human melanocytes < 90%? input = `COc1cc(OC)c2c(c1)OCC2=O`
Result: NO
